Assay target: human PAH with the R408W mutation (Homo sapiens, UniProt P00439, R408W)
Construct: expressed in transfected cells
Test description: Cell Based Phenylalanine Flux Assay
Condition details: A375 cells expressing human R408W PAH; 24 hrs compound incubation; 13C-Tyrosine by LC-MS; average where tested multiple times; read-out: AC50
Overview of reported AC50 across a group of molecules:

Consider the worked cases shown below.
# Molecule, AC50
rows = [
    ("Cc1cccn2nc([C@@H]3c4nc[nH]c4CCN3c3nc4ccccc4o3)cc12 [Example 1643]", "0.5 to 1 µM"),
    ("COc1ccc(-c2nnc(C(=O)N3CCc4[nH]cnc4[C@@H]3c3cc4c(F)cccn4n3)o2)nc1 [Example 789]", "1 to 5 µM"),
    ("O=C(c1nnc(-c2cnn(C(F)(F)F)c2)o1)N1CCc2[nH]cnc2[C@H]1c1cc2c(C(F)(F)F)cccn2n1 [Example 1538]", "0.5 to 1 µM"),
    ("O=C(c1nnc(-c2ccccn2)o1)N1CCc2[nH]cnc2[C@H]1c1cc2c(F)cccn2n1 [Example 733]", "< 0.5 µM"),
    ("Cn1cncc1-c1nc(C(F)F)c(C(=O)N2CCc3[nH]cnc3[C@H]2c2cc3c(F)cccn3n2)o1 [Example 889]", "0.5 to 1 µM"),
]

Inquiry: Need AC50, item O=C(c1nnc(N2CCC(F)CC2)o1)N1CCc2[nH]cnc2[C@@H]1c1cc2c(F)cccn2n1 [Example 1015]
Reply text: > 5 µM

Inquiry: Same question, Cc1cccc2cc([C@@H]3c4nc[nH]c4CCN3C(=O)c3nnc(C4CC4)o3)nn12 [Example 940] this time
Reply text: 0.5 to 1 µM

Inquiry: Same question, Cc1cccn2nc([C@H]3c4nc[nH]c4CCN3C(=O)c3cnn4ccccc34)cc12 [Example 1287] this time
Reply text: 0.5 to 1 µM

* * *

Overview of reported AC50 across a group of compounds:
Assay target: human PAH with the R408W mutation (Homo sapiens, UniProt P00439, R408W)
Construct: expressed in transfected cells
Sequence (P00439 1-452 R408W): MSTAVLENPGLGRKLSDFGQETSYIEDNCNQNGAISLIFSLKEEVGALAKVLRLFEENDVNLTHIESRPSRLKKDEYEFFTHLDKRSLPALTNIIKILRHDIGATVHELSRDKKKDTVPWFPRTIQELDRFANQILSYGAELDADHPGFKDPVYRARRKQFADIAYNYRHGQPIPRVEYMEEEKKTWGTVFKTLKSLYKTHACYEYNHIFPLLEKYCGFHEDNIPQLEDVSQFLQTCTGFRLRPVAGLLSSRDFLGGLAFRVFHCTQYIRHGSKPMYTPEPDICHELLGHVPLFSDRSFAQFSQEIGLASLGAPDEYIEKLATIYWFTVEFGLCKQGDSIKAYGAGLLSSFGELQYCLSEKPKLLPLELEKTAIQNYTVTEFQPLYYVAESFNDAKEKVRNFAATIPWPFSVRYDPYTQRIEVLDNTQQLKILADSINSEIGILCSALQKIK
Test description: Cell Based Phenylalanine Flux Assay
Condition details: A375 cells expressing human PAH R408W; 24 hrs compound incubation; 13C-Tyrosine by LC-MS; average where tested multiple times; read-out: AC50

# Mol, Assay target, AC50
data = [
    ("O=C(c1cnn(CC(F)(F)F)c1C(F)F)N1CCc2[nH]cnc2[C@@H]1c1cc2ccccn2n1", "human PAH with the R408W mutation (Homo sapiens, UniProt P00439, R408W)", "> 5000 nM"),
    ("O=C(c1nnc(-c2cnn(C(F)(F)F)c2)o1)N1CCc2[nH]cnc2[C@H]1c1cc2c(C3CC3)cccn2n1", "human PAH with the R408W mutation (Homo sapiens, UniProt P00439, R408W)", "500 to 1000 nM"),
    ("Cn1cc(-c2nnc(C(=O)N3CCc4[nH]cnc4[C@@H]3c3cc4ccccn4n3)s2)cn1", "human PAH with the R408W mutation (Homo sapiens, UniProt P00439, R408W)", "> 5000 nM"),
    ("CC(C)c1cccn2nc([C@@H]3c4nc[nH]c4CCN3c3nnc(C(C)(F)F)o3)cc12", "human PAH with the R408W mutation (Homo sapiens, UniProt P00439, R408W)", "< 500 nM"),
    ("Cc1cccn2nc([C@H]3c4nc[nH]c4CCN3c3nnc(-c4ncccc4F)o3)cc12", "human PAH with the R408W mutation (Homo sapiens, UniProt P00439, R408W)", "> 5000 nM"),
]

Inquiry: Need AC50, item `Cc1cccn2nc([C@H]3c4nc[nH]c4CCN3c3nnc(C4CCC4)o3)cc12`
Reply text: > 5000 nM

* * *

Assay target: human PAH with the R408W mutation (Homo sapiens, UniProt P00439, R408W)
Construct: expressed in transfected cells
Sequence (P00439 1-452 R408W): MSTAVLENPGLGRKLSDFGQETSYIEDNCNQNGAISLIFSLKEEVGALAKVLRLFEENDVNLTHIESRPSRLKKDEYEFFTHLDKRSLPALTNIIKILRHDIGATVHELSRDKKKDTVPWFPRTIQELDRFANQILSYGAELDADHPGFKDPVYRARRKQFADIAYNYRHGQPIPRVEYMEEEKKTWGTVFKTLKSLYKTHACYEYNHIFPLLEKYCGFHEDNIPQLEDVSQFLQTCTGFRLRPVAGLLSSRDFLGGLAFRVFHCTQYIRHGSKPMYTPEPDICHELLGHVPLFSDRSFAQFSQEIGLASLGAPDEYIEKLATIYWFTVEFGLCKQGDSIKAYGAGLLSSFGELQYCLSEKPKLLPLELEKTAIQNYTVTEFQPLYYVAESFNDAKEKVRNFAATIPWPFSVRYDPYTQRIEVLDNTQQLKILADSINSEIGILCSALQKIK
Test description: Cell Based Phenylalanine Flux Assay
Condition details: A375 cells expressing human PAH R408W; 24 hrs compound incubation; 13C-Tyrosine by LC-MS; average where tested multiple times; read-out: AC50
Overview of reported AC50 across a group of compounds:

Consider the worked cases shown below.
# Mol, Measure name, Result
measured = [
    ("Cn1ccc(-c2nnc(C(=O)N3CCc4[nH]cnc4[C@H]3c3cc4c(F)cccn4n3)s2)n1", "AC50", "< 500 nM"),
    ("Cc1cccn2nc([C@@H]3c4nc[nH]c4CCN3C(=O)c3cnc(-c4cnccn4)o3)cc12", "AC50", "500 to 1000 nM"),
    ("O=C(c1nc2ccccc2o1)N1CCc2[nH]cnc2[C@H]1c1cc2ccccn2n1", "AC50", "500 to 1000 nM"),
]

Inquiry: Test system human PAH with the R408W mutation (Homo sapiens, UniProt P00439, R408W); read-out AC50; what value for `CC(C)(O)c1ncc(C(=O)N2CCc3[nH]cnc3[C@H]2c2cc3c(F)cccn3n2)o1` ?
Reply text: 1000 to 5000 nM

* * *

Assay target: human PAH with the R408W mutation (Homo sapiens, UniProt P00439, R408W)
Construct: expressed in transfected cells
Test description: Cell Based Phenylalanine Flux Assay
Condition details: A375 cells expressing human PAH R408W; 24 hrs compound incubation; 13C-Tyrosine by LC-MS; average where tested multiple times; read-out: AC50
Measure name: AC50

# Mol, Result
data = [
    ("O=C(c1oc(-c2ccccn2)nc1C1CC1)N1CCc2[nH]cnc2[C@@H]1c1cc2c(F)cccn2n1", "1000 to 5000 nM"),
    ("FC(F)(F)c1nnc(N2CCc3[nH]cnc3[C@@H]2c2cc3c(Cl)cccn3n2)o1", "> 5000 nM"),
    ("Cc1cccc(-c2nnc(N3CCc4[nH]cnc4[C@H]3c3cc4c(C5CC5)cccn4n3)o2)n1", "500 to 1000 nM"),
]

Could you now look at the following molecule, please?
Inquiry: Need AC50, item `CC(C)(C)c1ncc(C(=O)N2CCc3[nH]cnc3[C@H]2c2cc3c(C(F)F)cccn3n2)o1`
Reply text: < 500 nM

* * *

Assay target: human PAH with the R408W mutation (Homo sapiens, UniProt P00439, R408W)
Construct: expressed in transfected cells
Sequence (P00439 1-452 R408W): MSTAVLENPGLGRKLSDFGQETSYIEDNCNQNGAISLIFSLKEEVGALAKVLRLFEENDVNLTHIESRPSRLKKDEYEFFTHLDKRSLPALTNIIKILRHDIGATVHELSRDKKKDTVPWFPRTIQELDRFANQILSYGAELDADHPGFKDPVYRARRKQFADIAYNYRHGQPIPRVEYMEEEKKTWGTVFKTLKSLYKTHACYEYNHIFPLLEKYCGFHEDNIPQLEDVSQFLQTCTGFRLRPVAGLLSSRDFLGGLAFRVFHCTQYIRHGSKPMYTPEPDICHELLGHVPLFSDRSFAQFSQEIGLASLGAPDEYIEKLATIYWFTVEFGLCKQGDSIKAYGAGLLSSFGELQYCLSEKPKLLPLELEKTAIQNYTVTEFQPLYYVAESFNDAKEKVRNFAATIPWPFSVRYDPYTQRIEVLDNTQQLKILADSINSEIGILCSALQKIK
Test description: Cell Based Phenylalanine Flux Assay;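 also: after compound treatment, cells received sepiapterin plus isotope-labelled Phenylalanine for 4 hours, then labelled Tyrosine in the medium was quantified, 10-point 2-fold dilution series run in duplicate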
Condition details: A375 cells expressing human R408W PAH; 24 hrs compound incubation; 13C-Tyrosine by LC-MS; average where tested multiple times; read-out: AC50
Measure name: AC50

Consider the worked cases shown below.
# Mol, Assay target, Measure name, Result
measured = [
    ("Cc1cccc2cc([C@@H]3c4nc[nH]c4CCN3C(=O)c3cnn4cc(CN(C)C)ccc34)nn12", "human PAH with the R408W mutation (Homo sapiens, UniProt P00439, R408W)", "AC50", "500 to 1000 nM"),
    ("CC(C)(C)c1nnc(C(=O)N2CCc3[nH]cnc3[C@@H]2c2cc3c(Cl)cccn3n2)o1", "human PAH with the R408W mutation (Homo sapiens, UniProt P00439, R408W)", "AC50", "> 5000 nM"),
    ("CC(C)c1nnc(C(=O)N2CCc3[nH]cnc3[C@@H]2c2cc3c(Cl)cccn3n2)o1", "human PAH with the R408W mutation (Homo sapiens, UniProt P00439, R408W)", "AC50", "1000 to 5000 nM"),
    ("Cn1nccc1C(=O)N1CCc2[nH]cnc2[C@H]1c1cc2c(F)cccn2n1", "human PAH with the R408W mutation (Homo sapiens, UniProt P00439, R408W)", "AC50", "500 to 1000 nM"),
    ("COc1ccc2c(C(=O)N3CCc4[nH]cnc4[C@H]3c3cc4cccc(F)n4n3)cnn2c1", "human PAH with the R408W mutation (Homo sapiens, UniProt P00439, R408W)", "AC50", "500 to 1000 nM"),
]

Inquiry: Need AC50, item `Cn1ccc(-c2nnc(C(=O)N3CCc4[nH]cnc4[C@H]3c3cc4c(Cl)cccn4n3)o2)n1`
Reply text: < 500 nM

Inquiry: Same question, `CC(C)(C)c1nnc(C(=O)N2CCc3[nH]cnc3[C@H]2c2cc3cccc(F)n3n2)o1` this time
Reply text: < 500 nM

Inquiry: Same question, `Cc1c(-c2nnc(C(=O)N3CCc4[nH]cnc4[C@@H]3c3cc4c(C(F)(F)F)cccn4n3)o2)cnn1C` this time
Reply text: > 5000 nM

Inquiry: Same question, `Clc1cccn2nc([C@H]3c4nc[nH]c4CCN3c3ncccn3)cc12` this time
Reply text: 1000 to 5000 nM

Inquiry: Same question, `Cc1c(-c2nnc(C(=O)N3CCc4[nH]cnc4[C@H]3c3cc4c(C(F)(F)F)cccn4n3)o2)cnn1C` this time
Reply text: < 500 nM

Inquiry: Same question, `Cc1cccc2cc([C@@H]3c4nc[nH]c4CCN3C(=O)c3nnc(C4(C)CC4)o3)nn12` this time
Reply text: < 500 nM

Inquiry: Same question, `CC(C)(F)c1nc(C(F)F)c(C(=O)N2CCc3[nH]cnc3[C@@H]2c2cc3ccccn3n2)o1` this time
Reply text: 1000 to 5000 nM

Inquiry: Same question, `Cc1nc([C@H](C)O)oc1C(=O)N1CCc2[nH]cnc2[C@H]1c1cc2c(C)cccn2n1` this time
Reply text: < 500 nM

Inquiry: Same question, `COCCc1ccc2c(C(=O)N3CCc4[nH]cnc4[C@H]3c3cc4c(C(F)(F)F)cccn4n3)cnn2c1` this time
Reply text: 500 to 1000 nM

Inquiry: Same question, `O=C(c1nnc(-c2cnccn2)o1)N1CCc2[nH]cnc2[C@@H]1c1cc2cccc(C(F)F)n2n1` this time
Reply text: 1000 to 5000 nM
